# assayed.system: Cyclin-dependent kinase 2 (Homo sapiens)
measurement.name: log10 of IC50 (log10 of the value in µM)

- compound: "COc1ccccc1-c1cccc(C(=O)N2CCc3c([nH]c4ccccc34)C2)c1"
  log10 of IC50: 3.05
- compound: "O=C(c1ccccc1-c1cccc(F)c1)N1CCc2c([nH]c3ccccc23)C1"
  log10 of IC50: 2.68
- compound: "Cc1ccc(-c2ccc(C(=O)N(C)CCc3c[nH]c4ccccc34)cc2)cc1"
  log10 of IC50: 1.85
- compound: "CN(CCc1c[nH]c2ccccc12)C(=O)c1ccc(-c2ccc(F)cc2)cc1"
  log10 of IC50: 2.94
- compound: "O=C(c1ccccc1-c1ccncc1)N1CCc2c([nH]c3ccccc23)C1"
  log10 of IC50: 2.55
- compound: "Cc1ccc(-c2ccc(C(=O)N3CCc4c([nH]c5ccccc45)C3)cc2)cc1"
  log10 of IC50: 2.87
- compound: "Cc1ccc(-c2ccc(C(=O)NCCc3c[nH]c4ccccc34)cc2)cc1"
  log10 of IC50: 2.91
- compound: "COc1ccccc1-c1ccc(C(=O)N2CCc3c([nH]c4ccccc34)C2)cc1"
  log10 of IC50: 2.51
- compound: "O=C(c1cccc(-c2cccc(F)c2)c1)N1CCc2c([nH]c3ccccc23)C1"
  log10 of IC50: 2.79
- compound: "O=C(c1ccc(-c2ccc(F)cc2)cc1)N1CCc2c([nH]c3ccccc23)C1"
  log10 of IC50: 2.64
- compound: "O=C1c2ccccc2-[n+]2ccc3c([nH]c4ccccc43)c21 [FASCAPLYSIN CHLORIDE]"
  log10 of IC50: 2.70
- compound: "COc1cccc(-c2ccc(C(=O)N3CCc4c([nH]c5ccccc45)C3)cc2)c1"
  log10 of IC50: 2.63
- compound: "CC(C)(C)c1ccc(-c2ccccc2C(=O)NCCc2c[nH]c3ccccc23)cc1"
  log10 of IC50: 2.42
- compound: "Cc1cccc(-c2ccccc2C(=O)N2CCc3c([nH]c4ccccc34)C2)c1"
  log10 of IC50: 2.59
- compound: "O=C(NCCc1c[nH]c2ccccc12)c1ccc(-c2ccc(F)cc2)cc1"
  log10 of IC50: 2.88
- compound: "O=C(c1ccccc1-c1ccc(F)cc1)N1CCc2c([nH]c3ccccc23)C1"
  log10 of IC50: 2.55
- compound: "O=C(NCCc1c[nH]c2ccccc12)c1cccc(-c2cccnc2)c1"
  log10 of IC50: 2.18
- compound: "COc1ccc(-c2ccc(C(=O)NCCc3c[nH]c4ccccc34)cc2)cc1"
  log10 of IC50: 3.04
- compound: "O=C(c1ccccc1-c1cccnc1)N1CCc2c([nH]c3ccccc23)C1"
  log10 of IC50: 2.49
- compound: "CN(CCc1c[nH]c2ccccc12)C(=O)c1ccc(-c2ccc(C(C)(C)C)cc2)cc1"
  log10 of IC50: 2.87
- compound: "O=C(NCCc1c[nH]c2ccccc12)c1ccccc1-c1ccc(F)cc1"
  log10 of IC50: 3.09
- compound: "CC(C)(C)c1ccc(-c2ccc(C(=O)NCCc3c[nH]c4ccccc34)cc2)cc1"
  log10 of IC50: 2.90

###

# assayed.system: Cyclin-dependent kinase 4/cyclin D1 (Homo sapiens, UniProt P11802)
# Sequence (P11802 whole entry): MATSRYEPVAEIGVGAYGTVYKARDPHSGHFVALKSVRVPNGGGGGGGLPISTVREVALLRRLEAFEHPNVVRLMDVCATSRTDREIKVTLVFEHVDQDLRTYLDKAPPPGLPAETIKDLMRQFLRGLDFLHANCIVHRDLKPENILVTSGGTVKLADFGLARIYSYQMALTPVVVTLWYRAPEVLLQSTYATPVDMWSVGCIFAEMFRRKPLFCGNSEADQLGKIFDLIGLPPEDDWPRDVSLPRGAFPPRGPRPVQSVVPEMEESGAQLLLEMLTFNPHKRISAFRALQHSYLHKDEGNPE
# Sequence (P24385 whole entry, further chain): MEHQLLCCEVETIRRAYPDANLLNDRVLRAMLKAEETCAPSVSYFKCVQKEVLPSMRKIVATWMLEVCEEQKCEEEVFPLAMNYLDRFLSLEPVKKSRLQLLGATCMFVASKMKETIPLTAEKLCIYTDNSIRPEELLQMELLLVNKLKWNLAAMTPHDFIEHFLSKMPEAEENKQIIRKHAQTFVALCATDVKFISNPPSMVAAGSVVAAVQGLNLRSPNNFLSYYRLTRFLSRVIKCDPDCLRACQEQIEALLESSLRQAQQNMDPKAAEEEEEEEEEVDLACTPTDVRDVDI
# method.description: Inhibition of human CDK4/GST-cyclin D1 expressed in Sf9 cells assessed as retinoblastoma GST-RB152 phosphorylation
pIC50: −log10 of the molar value.

- compound: "O=C(NCCc1c[nH]c2ccccc12)c1ccc(-c2ccc(F)cc2)cc1"
  pIC50: 4.82
- compound: "COc1ccc(-c2ccc(C(=O)NCCc3c[nH]c4ccccc34)cc2)cc1"
  pIC50: 4.32
- compound: "Cc1cccc(-c2ccccc2C(=O)N2CCc3c([nH]c4ccccc34)C2)c1"
  pIC50: 4.59
- compound: "CN(CCc1c[nH]c2ccccc12)C(=O)c1ccc(-c2ccc(F)cc2)cc1"
  pIC50: 4.68
- compound: "CN(CCc1c[nH]c2ccccc12)C(=O)c1ccc(-c2ccncc2)cc1"
  pIC50: 4.59
- compound: "COc1cccc(-c2ccc(C(=O)N3CCc4c([nH]c5ccccc45)C3)cc2)c1"
  pIC50: 4.55
- compound: "O=C(c1cccc(-c2ccc(F)cc2)c1)N1CCc2c([nH]c3ccccc23)C1"
  pIC50: 4.60
- compound: "COc1cccc(-c2cccc(C(=O)N3CCc4c([nH]c5ccccc45)C3)c2)c1"
  pIC50: 4.48
- compound: "Cc1ccc(-c2ccc(C(=O)N3CCc4c([nH]c5ccccc45)C3)cc2)cc1"
  pIC50: 5.05
- compound: "O=C(NCCc1c[nH]c2ccccc12)c1ccccc1-c1ccc(F)cc1"
  pIC50: 4.42
- compound: "Cc1cccc(-c2ccc(C(=O)N3CCc4c([nH]c5ccccc45)C3)cc2)c1"
  pIC50: 4.60
- compound: "O=C(c1ccccc1-c1ccccc1F)N1CCc2c([nH]c3ccccc23)C1"
  pIC50: 4.72
- compound: "CN(CCc1c[nH]c2ccccc12)C(=O)c1ccc(-c2ccc(-c3ccccc3)cc2)cc1"
  pIC50: 4.46
- compound: "Cc1ccc(-c2ccc(C(=O)NCCc3c[nH]c4ccccc34)cc2)cc1"
  pIC50: 4.74
- compound: "O=C(c1cccc(-c2ccccc2F)c1)N1CCc2c([nH]c3ccccc23)C1"
  pIC50: 4.74
- compound: "O=C(NCCc1c[nH]c2ccccc12)c1ccc(-c2ccccc2)cc1"
  pIC50: 4.80
- compound: "O=C(NCCc1c[nH]c2ccccc12)c1cccc(-c2ccccc2)c1"
  pIC50: 4.07
- compound: "Cc1cccc(-c2cccc(C(=O)N3CCc4c([nH]c5ccccc45)C3)c2)c1"
  pIC50: 4.96
- compound: "O=C(c1ccccc1-c1cccc(F)c1)N1CCc2c([nH]c3ccccc23)C1"
  pIC50: 4.46
- compound: "Cc1ccccc1-c1ccc(C(=O)N2CCc3c([nH]c4ccccc34)C2)cc1"
  pIC50: 4.49
- compound: "O=C1c2ccccc2-[n+]2ccc3c([nH]c4ccccc43)c21 [FASCAPLYSIN CHLORIDE]"
  pIC50: 6.26
- compound: "COc1ccccc1-c1cccc(C(=O)N2CCc3c([nH]c4ccccc34)C2)c1"
  pIC50: 4.10
- compound: "CC(C)(C)c1ccc(-c2ccc(C(=O)NCCc3c[nH]c4ccccc34)cc2)cc1"
  pIC50: 5.04

###

# assayed.system: Cyclin-dependent kinase 4/cyclin D1 (Homo sapiens, UniProt P11802)
# method.description: Inhibition of human CDK4/GST-cyclin D1 expressed in Sf9 cells assessed as retinoblastoma GST-RB152 phosphorylation
pIC50: −log10 of the molar value.
Parameter: pIC50. Scope: all listed entries.
measurement.name: pIC50

- line.notation: "O=C(c1cccc(-c2cccc(F)c2)c1)N1CCc2c([nH]c3ccccc23)C1"
  assayed.system: "Cyclin-dependent kinase 4/cyclin D1 (Homo sapiens, UniProt P11802)"
  measured: 4.57
- line.notation: "O=C(NCCc1c[nH]c2ccccc12)c1ccccc1-c1cccc(F)c1"
  assayed.system: "Cyclin-dependent kinase 4/cyclin D1 (Homo sapiens, UniProt P11802)"
  measured: 4.70
- line.notation: "COc1ccccc1-c1ccc(C(=O)N2CCc3c([nH]c4ccccc34)C2)cc1"
  assayed.system: "Cyclin-dependent kinase 4/cyclin D1 (Homo sapiens, UniProt P11802)"
  measured: 4.66
- line.notation: "O=C(c1ccc(-c2ccccc2F)cc1)N1CCc2c([nH]c3ccccc23)C1"
  assayed.system: "Cyclin-dependent kinase 4/cyclin D1 (Homo sapiens, UniProt P11802)"
  measured: 4.77
- line.notation: "COc1ccc(-c2ccc(C(=O)N(C)CCc3c[nH]c4ccccc34)cc2)cc1"
  assayed.system: "Cyclin-dependent kinase 4/cyclin D1 (Homo sapiens, UniProt P11802)"
  measured: 4.31
- line.notation: "O=C(c1ccccc1-c1ccc(F)cc1)N1CCc2c([nH]c3ccccc23)C1"
  assayed.system: "Cyclin-dependent kinase 4/cyclin D1 (Homo sapiens, UniProt P11802)"
  measured: 4.64
- line.notation: "O=C(NCCc1c[nH]c2ccccc12)c1cccc(-c2cccnc2)c1"
  assayed.system: "Cyclin-dependent kinase 4/cyclin D1 (Homo sapiens, UniProt P11802)"
  measured: 4.52
- line.notation: "COc1ccccc1-c1ccccc1C(=O)NCCc1c[nH]c2ccccc12"
  assayed.system: "Cyclin-dependent kinase 4/cyclin D1 (Homo sapiens, UniProt P11802)"
  measured: 4.59
- line.notation: "O=C(c1ccc(-c2cccc(F)c2)cc1)N1CCc2c([nH]c3ccccc23)C1"
  assayed.system: "Cyclin-dependent kinase 4/cyclin D1 (Homo sapiens, UniProt P11802)"
  measured: 4.68
- line.notation: "CN(CCc1c[nH]c2ccccc12)C(=O)c1ccc(-c2ccc(C(C)(C)C)cc2)cc1"
  assayed.system: "Cyclin-dependent kinase 4/cyclin D1 (Homo sapiens, UniProt P11802)"
  measured: 4.95
- line.notation: "Cc1ccccc1-c1cccc(C(=O)N2CCc3c([nH]c4ccccc34)C2)c1"
  assayed.system: "Cyclin-dependent kinase 4/cyclin D1 (Homo sapiens, UniProt P11802)"
  measured: 4.12
- line.notation: "O=C(c1ccccc1-c1ccncc1)N1CCc2c([nH]c3ccccc23)C1"
  assayed.system: "Cyclin-dependent kinase 4/cyclin D1 (Homo sapiens, UniProt P11802)"
  measured: 4.41
- line.notation: "Cc1cccc(-c2ccccc2C(=O)NCCc2c[nH]c3ccccc23)c1"
  assayed.system: "Cyclin-dependent kinase 4/cyclin D1 (Homo sapiens, UniProt P11802)"
  measured: 4.82
- line.notation: "O=C(c1ccc(-c2ccc(F)cc2)cc1)N1CCc2c([nH]c3ccccc23)C1"
  assayed.system: "Cyclin-dependent kinase 4/cyclin D1 (Homo sapiens, UniProt P11802)"
  measured: 4.92
- line.notation: "COc1cccc(-c2ccccc2C(=O)NCCc2c[nH]c3ccccc23)c1"
  assayed.system: "Cyclin-dependent kinase 4/cyclin D1 (Homo sapiens, UniProt P11802)"
  measured: 4.28
- line.notation: "COc1ccc(-c2ccccc2C(=O)NCCc2c[nH]c3ccccc23)cc1"
  assayed.system: "Cyclin-dependent kinase 4/cyclin D1 (Homo sapiens, UniProt P11802)"
  measured: 4.10
- line.notation: "CC(C)(C)c1ccc(-c2ccccc2C(=O)NCCc2c[nH]c3ccccc23)cc1"
  assayed.system: "Cyclin-dependent kinase 4/cyclin D1 (Homo sapiens, UniProt P11802)"
  measured: 4.42
- line.notation: "CN(CCc1c[nH]c2ccccc12)C(=O)c1ccc(-c2ccccc2)cc1"
  assayed.system: "Cyclin-dependent kinase 4/cyclin D1 (Homo sapiens, UniProt P11802)"
  measured: 5.22
- line.notation: "Cc1ccc(-c2ccc(C(=O)N(C)CCc3c[nH]c4ccccc34)cc2)cc1"
  assayed.system: "Cyclin-dependent kinase 4/cyclin D1 (Homo sapiens, UniProt P11802)"
  measured: 4.62
- line.notation: "Cc1ccc(-c2cccc(C(=O)N3CCc4c([nH]c5ccccc45)C3)c2)cc1"
  assayed.system: "Cyclin-dependent kinase 4/cyclin D1 (Homo sapiens, UniProt P11802)"
  measured: 4.62
- line.notation: "O=C(c1ccccc1-c1cccnc1)N1CCc2c([nH]c3ccccc23)C1"
  assayed.system: "Cyclin-dependent kinase 4/cyclin D1 (Homo sapiens, UniProt P11802)"
  measured: 4.44
